All figures here come from paper PMC8222333.

Recorded measurements of binding signal, one per entry
target: dAsCas12a Ultra (Acidaminococcus sp., UniProt U2UMQ6 1-1307, M537R;F870L;D908A;E993A;D1235A); test: Spec-seq (native PAGE EMSA with sequencing of bound and unbound); 25 mM Tris-HCl pH 7.4, 150 mM KCl, 5 mM MgCl2, 10% glycerol, 1 mM DTT, 40 ng/uL salmon sperm DNA; 400 nM Cas12a, 480 nM crRNA, 50 nM library, 37 C 1 h; native PAGE at room temperature; high values mean tight binding; conditions: protein: recombinant
API: value field is a number in lnKA; no unit string.

Qu. I would be grateful if you could share the reported binding signal for AGGA (dsDNA) DNA 1: GCTATCTAGTGCTCAGTACGCACTGAGGAAGGAAACTTCTGGCAGGACCAGGTCATGAGATCGGAAGAGCACACGTCTGAACTCCAGTCA DNA 2: TGACTGGAGTTCAGACGTGTGCTCTTCCGATCTCATGACCTGGTCCTGCCAGAAGTTTCCTTCCTCAGTGCGTACTGAGCACTAGATAGC RNA: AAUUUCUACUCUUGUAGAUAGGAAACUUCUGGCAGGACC .
Ans. -8.33

Qu. I would be grateful if you could share the reported binding signal for GTGA (dsDNA) DNA 1: GCTATCTAGTGCTCAGTACGCACTGGTGAAGGAAACTTCTGGCAGGACCAGGTCATGAGATCGGAAGAGCACACGTCTGAACTCCAGTCA DNA 2: TGACTGGAGTTCAGACGTGTGCTCTTCCGATCTCATGACCTGGTCCTGCCAGAAGTTTCCTTCACCAGTGCGTACTGAGCACTAGATAGC RNA: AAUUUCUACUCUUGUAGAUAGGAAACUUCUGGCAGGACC .
Ans. -7.93

Qu. I would be grateful if you could share the reported binding signal for CTTC (dsDNA) DNA 1: GCTATCTAGTGCTCAGTACGCACTGCTTCAGGAAACTTCTGGCAGGACCAGGTCATGAGATCGGAAGAGCACACGTCTGAACTCCAGTCA DNA 2: TGACTGGAGTTCAGACGTGTGCTCTTCCGATCTCATGACCTGGTCCTGCCAGAAGTTTCCTGAAGCAGTGCGTACTGAGCACTAGATAGC RNA: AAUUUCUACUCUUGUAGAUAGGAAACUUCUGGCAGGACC .
Ans. -4.32
